Give log10 EC50 for every item shown.
- System: mouse RORγ (Mus musculus, UniProt P51450)
- Construct: mouse RORγ, from Ile251 to Lys516; expressed in transfected cells; host or cells: CHO cells (Chinese hamster ovary), transient co-transfection with pG5-Luc
- Sequence (P51450 251-516): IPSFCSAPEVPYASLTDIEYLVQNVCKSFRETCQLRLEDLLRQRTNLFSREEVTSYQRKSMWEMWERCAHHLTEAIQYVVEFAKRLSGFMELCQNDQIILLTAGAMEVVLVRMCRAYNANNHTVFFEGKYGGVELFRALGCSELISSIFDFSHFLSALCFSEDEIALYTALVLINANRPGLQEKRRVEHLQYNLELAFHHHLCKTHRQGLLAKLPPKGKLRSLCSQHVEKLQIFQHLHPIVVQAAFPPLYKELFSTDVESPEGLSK
- Method summary: In vitro assay of inhibitory effect against RORγ transcriptional activity (GAL4-mRORγ LBD luciferase reporter gene assay in CHO cells)
- Type: cell-based
- Protocol conditions: GAL4-mRORγ LBD luciferase reporter, CHO cells; read-out: LUC EC50 mRORγ
Scale: decimal log of EC50, EC50 in nM.

q: // fetch log10 EC50 given entry COCC(C)C1=CN(CCC(=O)O)C(=O)N[C@@]1(C)c1ccc(CCC(C)(C)C)c(Cl)c1 (single isomer, unassigned) [Example 305]
a: 0.78

q: // fetch log10 EC50 given entry COCCN1C=C(c2ccc(C(=O)O)cc2)[C@](C)(c2ccc(CCC(C)(C)C)c(Cl)c2)NC1=O
a: 1.86

q: // fetch log10 EC50 given entry COCCC1=CN(c2ccc(C(=O)O)cc2)C(=O)N[C@@]1(C)c1ccc(CCC(C)(C)C)c(C(F)(F)F)c1
a: 1.36

q: // fetch log10 EC50 given entry CC(C)C1=CN(c2ccc(F)c(C(=O)O)c2)C(=O)N[C@@]1(C)c1ccc(CCC(C)(C)C)c(Cl)c1
a: 1.60

q: // fetch log10 EC50 given entry CC(C)(C)CCc1ccc([C@]2(C)NC(=O)N(c3ccncc3)C=C2CCC(=O)O)cc1Cl
a: 2.66

q: // fetch log10 EC50 given entry CC(C)C1=CN(CCC(=O)O)C(=O)N[C@@]1(C)c1ccc(C2=CCC(F)(F)CC2)c(Cl)c1
a: 1.60

q: // fetch log10 EC50 given entry COc1cc(N2C=C(C3CC(F)(F)C3)[C@](C)(c3ccc(CCC(C)(C)C)c(Cl)c3)NC2=O)ccc1C(=O)O
a: 1.26

q: // fetch log10 EC50 given entry CC(C)(C)CCc1ccc([C@]2(C)NC(=O)N(C3CC(C)(C)C3)C=C2[C@H]2C[C@@H](C(=O)O)C2)cc1Cl
a: 1.45

q: // fetch log10 EC50 given entry CC(C)(C)CCc1ccc([C@]2(C)NC(=O)N([C@H]3C[C@H](C(=O)O)C3)C=C2[C@H]2C[C@@H](CO)C2)cc1Cl
a: 2.63

q: // fetch log10 EC50 given entry CC(C)(C)CCc1ccc([C@]2(C)NC(=O)N(CCC(=O)O)C=C2C2CC(F)(F)C2)cc1C(F)(F)F
a: 1.28

q: // fetch log10 EC50 given entry CC(C)C1=CN([C@H](C)CC(=O)O)C(=O)N[C@@]1(C)c1ccc(CCC(C)(C)C)c(Cl)c1
a: 1.18

q: // fetch log10 EC50 given entry COCCN1C=C(c2cncc(C(=O)O)c2)[C@](C)(c2ccc(CCC(C)(C)C)c(Cl)c2)NC1=O
a: 3.08

q: // fetch log10 EC50 given entry CC(C)C1=CN(CCC(=O)O)C(=O)N[C@@]1(C)c1ccc(C#CC(C)(C)C)c(Cl)c1
a: 1.38

q: // fetch log10 EC50 given entry CC(C)(C)CCc1ccc([C@]2(C)NC(=O)N(C3CCC(F)(F)CC3)C=C2[C@H]2C[C@@H](C(=O)O)C2)cc1Cl
a: 1.34

* * *

Give log10(EC50) for every item shown.
- System: mouse RORγ (Mus musculus)
- Construct: mouse RORγ, from Ile251 to Lys516; expressed in transfected cells; host or cells: CHO cells (Chinese hamster ovary), transient co-transfection with pG5-Luc
- Method summary: In vitro assay of inhibitory effect against RORγ transcriptional activity (GAL4-mRORγ LBD luciferase reporter gene assay in CHO cells)
- Type: cell-based
- Protocol conditions: GAL4-mRORγ LBD luciferase reporter, CHO cells; read-out: LUC EC50 mRORγ
Scale: decimal log of EC50, EC50 in nM.

q: Specify the recorded log10(EC50) for CC(C)C1=CN(c2ccc(C(=O)O)cc2)C(=O)N[C@@]1(C)c1ccc(CCC(C)(C)C(F)(F)F)c(Cl)c1 [Example 196] , system: mouse RORγ (Mus musculus).
a: 1.23

q: Specify the recorded log10(EC50) for CC(C)COc1c(F)cc([C@]2(C)NC(=O)N(CCC(=O)O)C=C2C(C)C)cc1Cl [Example 194] , system: mouse RORγ (Mus musculus).
a: 1.45

q: Specify the recorded log10(EC50) for CC(C)C1=CN(c2cc(C(=O)O)on2)C(=O)N[C@@]1(C)c1ccc(CCC(C)(C)C)c(Cl)c1 [Example 295] , system: mouse RORγ (Mus musculus).
a: 2.56

q: Specify the recorded log10(EC50) for COCCC1=CN(c2ccc(C(=O)O)cc2)C(=O)N[C@@]1(C)c1ccc(C2=CCC(C)(C)CC2)c(Cl)c1 [Example 332] , system: mouse RORγ (Mus musculus).
a: 1.11

q: Specify the recorded log10(EC50) for Cc1cc(C(=O)O)ccc1N1C=C(C(C)C)[C@](C)(c2ccc(CCC(C)(C)C)c(Cl)c2)NC1=O [Example 220] , system: mouse RORγ (Mus musculus).
a: 1.46

q: Specify the recorded log10(EC50) for CC(C)(C)CCc1ccc([C@]2(C)NC(=O)N(CCC(=O)O)C=C2[C@H]2C[C@@H](CO)C2)cc1Cl [Example 241] , system: mouse RORγ (Mus musculus).
a: 2.39

q: Specify the recorded log10(EC50) for CC(C)CCOc1c(F)cc([C@]2(C)NC(=O)N(c3ccc(C(=O)O)cc3)C=C2C(C)C)cc1Cl [Example 192] , system: mouse RORγ (Mus musculus).
a: 1.04

* * *

- System: mouse RORγ (Mus musculus, UniProt P51450)
- Construct: mouse RORγ, from Ile251 to Lys516; expressed in transfected cells; host or cells: CHO cells (Chinese hamster ovary), transient co-transfection with pG5-Luc
- Method summary: In vitro assay of inhibitory effect against RORγ transcriptional activity (GAL4-mRORγ LBD luciferase reporter gene assay in CHO cells)
- Type: cell-based
- Protocol conditions: GAL4-mRORγ LBD / pG5-Luc in CHO cells, 2 days incubation
Mark each entry criterion met if its EC50 sits below 0.02 µM, and criterion not met for all others.

q: Please check: EC50 for CC(C)(C)CCc1ccc([C@@]2(C)NC(=O)N(CCCC(=O)O)C=C2C2CCCCC2)cc1Cl , strictly under 0.02 µM or not?
a: criterion not met

q: Please check: EC50 for CC(C)C1=CN(CCC(=O)O)C(=O)N[C@]1(C)c1ccc(CCC2CCCCC2)c(Cl)c1 , strictly under 0.02 µM or not?
a: criterion not met

q: Please check: EC50 for CC(C)C1=CN(CCC(=O)O)C(=O)N[C@]1(C)c1ccc(CCC2CC(C)(C)C2)c(Cl)c1 , strictly under 0.02 µM or not?
a: criterion not met

q: Please check: EC50 for CC(C)(C)COc1ccc(C2NC(=O)NC=C2C(C)(C)CCC(=O)O)cc1Cl (racemic) , strictly under 0.02 µM or not?
a: criterion not met

q: Please check: EC50 for CC(C)CC1=CN(CCCC(=O)O)C(=O)N[C@]1(C)c1ccc(CCC(C)(C)C)c(Cl)c1 , strictly under 0.02 µM or not?
a: criterion not met

q: Please check: EC50 for CC(C)C1=CN([C@H]2CC[C@@H](C(=O)O)CC2)C(=O)N[C@@]1(C)c1ccc(CCC(C)(C)C)c(Cl)c1 , strictly under 0.02 µM or not?
a: criterion met

q: Please check: EC50 for CC(C)C1=CN(CCCCC(=O)O)C(=O)N[C@@]1(C)c1ccc(CCC(C)(C)C)c(Cl)c1 , strictly under 0.02 µM or not?
a: criterion met

q: Please check: EC50 for CC(C)COc1ccc([C@]2(C)NC(=O)N(CCC(=O)O)C=C2C(C)C)cc1Cl , strictly under 0.02 µM or not?
a: criterion not met

q: Please check: EC50 for CC(C)(C)CCc1ccc([C@]2(C)NC(=O)N([C@H]3C[C@H](C(=O)O)C3)C=C2C2CCOCC2)cc1Cl , strictly under 0.02 µM or not?
a: criterion not met

q: Please check: EC50 for CCC1=CN(CCCC(=O)O)C(=O)N[C@@]1(C)c1ccc(CCC(C)(C)C)c(Cl)c1 , strictly under 0.02 µM or not?
a: criterion met

q: Please check: EC50 for CC(C)C1=CN(CCC(=O)O)C(=O)N[C@]1(C)c1ccc(C2=CCC(C)(C)CC2)c(Cl)c1 , strictly under 0.02 µM or not?
a: criterion not met

q: Please check: EC50 for CC(C)C1=CN([C@H]2CC[C@H](C(=O)O)CC2)C(=O)NC1(C)c1ccc(CCC(C)(C)C)c(Cl)c1 (mixture of isomers) , strictly under 0.02 µM or not?
a: criterion not met

q: Please check: EC50 for CC(C)(C)CCc1ccc(C2NC(=O)N(CCCC(=O)O)C=C2C(C)(C)C)cc1Cl (single isomer, unassigned) [Example 11] , strictly under 0.02 µM or not?
a: criterion not met

q: Please check: EC50 for CC(C)C1=CN([C@H]2CC[C@@H](C(=O)O)CC2)C(=O)NC1(C)c1ccc(CCC(C)(C)C)c(Cl)c1 (mixture of isomers) , strictly under 0.02 µM or not?
a: criterion not met

q: Please check: EC50 for CC(C)C1=CN(CCCC(=O)O)C(=O)N[C@]1(C)c1ccc(CCC2CCC2)c(Cl)c1 , strictly under 0.02 µM or not?
a: criterion not met

q: Please check: EC50 for CC(C)C1=CN(CCC(=O)O)C(=O)N[C@@]1(C)c1ccc(CCC(C)(C)C(F)(F)F)c(Cl)c1 , strictly under 0.02 µM or not?
a: criterion met

q: Please check: EC50 for CC(C)C1=CN([C@H]2C[C@](C)(C(=O)O)C2)C(=O)N[C@@]1(C)c1ccc(CCC(C)(C)C)c(Cl)c1 , strictly under 0.02 µM or not?
a: criterion met

q: Please check: EC50 for CC(C)C1=CN([C@H]2C[C@@H](C(=O)O)C2)C(=O)N[C@@]1(C)c1ccc(CCC(C)(C)C)c(Cl)c1 , strictly under 0.02 µM or not?
a: criterion met

q: Please check: EC50 for CC(C)CCC1=CN(CCCC(=O)O)C(=O)N[C@@]1(C)c1ccc(CCC(C)(C)C)c(Cl)c1 , strictly under 0.02 µM or not?
a: criterion not met

q: Please check: EC50 for CC(C)C1=CN(CCC(C)C(=O)O)C(=O)NC1(C)c1ccc(OCC(C)(C)C)c(Cl)c1 (mixture of isomers) [Example 21] , strictly under 0.02 µM or not?
a: criterion not met

q: Please check: EC50 for CC(C)C1=CN(CCC(=O)O)C(=O)N[C@@]1(C)c1ccc(C2CCCC2)c(Cl)c1 , strictly under 0.02 µM or not?
a: criterion not met

q: Please check: EC50 for CC(C)C1=CN([C@H]2C[C@H](C(=O)O)C2)C(=O)NC1(C)c1ccc(OCC(C)(C)C)c(Cl)c1 (mixture of isomers) , strictly under 0.02 µM or not?
a: criterion not met

q: Please check: EC50 for COCCOc1ccc([C@]2(C)NC(=O)N(CCC(=O)O)C=C2C(C)C)cc1Cl , strictly under 0.02 µM or not?
a: criterion not met

q: Please check: EC50 for CC(C)C1=CN(CCC(=O)O)C(=O)N[C@@]1(C)c1ccc(C2=CCCC2)c(Cl)c1 , strictly under 0.02 µM or not?
a: criterion not met

q: Please check: EC50 for CC(C)C1=CN(CCC(=O)O)C(=O)N[C@@]1(C)c1ccc(CCC2(C)CC2)c(Cl)c1 , strictly under 0.02 µM or not?
a: criterion met

q: Please check: EC50 for CC(C)(C)C#Cc1ccc(C2NC(=O)N(CCCC(=O)O)C=C2C(C)(C)C)cc1Cl (racemic) , strictly under 0.02 µM or not?
a: criterion not met
